# Tested on: GM3 expression on the cell surface, B16 mouse melanoma cells
# ASSAY_PROCEDURE: cell based phenotypic assay, cell surface GM3 by antibody mediated immunofluorescence, B16 (GM3 B16 IC50)
# CONDITION_LABEL: Mus musculus, B16 mouse melanoma cells; 50% inhibition of GM3 expression on the cell surface; read-out: GM3 B16 IC50
MEASURED_ATTRIBUTE: IC50 (µM)
# value in µM; strip the unit string

**Q:** Recorded IC50 of CC(C)(NC(=O)OC1CCN2CCC1CC2)c1ccc(-c2ccc(OCCC3COC3)cc2)cc1 (stereo not shown) , please.
**A:** 0.0948

**Q:** Recorded IC50 of COCCOCc1ccc(-c2ccc(C3(NC(=O)OC4CCN5CCC4CC5)CC3)cc2)cc1 (stereo not shown) , please.
**A:** 0.0993

**Q:** Recorded IC50 of COCCOc1ccc(Oc2nc(N3CCC(F)(C(=O)NC4(C)CN5CCC4CC5)CC3)ncc2F)cc1 (stereo not shown) , please.
**A:** 0.0634

**Q:** Recorded IC50 of O=C(NC1(c2ccc(-c3ccc(COCc4cncnc4)cc3)cc2)CC1)OC1CCN2CCC1CC2 (stereo not shown) , please.
**A:** 0.0992
